The measurements presented in this section are drawn from PubChem BioAssay AID328.

Listing: T/C of selected molecules
test system: BDF1 mice, P388 leukemia ip, median survival T/C; experiment: NCI In Vivo Anticancer Drug Screen. Data for tumor model P388 Leukemia (intraperitoneal) in B6D2F1 (BDF1) mice; details: endpoint: median survival time; dose: 200.0 mg/kg/injection; schedule: Q01DX010 (ip); vehicle: saline; higher = longer survival
Toxic doses and inconclusive results are not listed.

{"molecule": "CCC(/C=C\\C(C)C1CCC2C3CC=C4CC(O)CCC4(C)C3CCC12C)C(C)C (centres undefined)", "T/C": "100 % of control"}
{"molecule": "CC(Cc1ccc(O)c(O)c1)C(C)Cc1ccc(O)c(O)c1 (centres undefined)", "T/C": "104 % of control"}
{"molecule": "N[C@H](Cc1c[nH]c2ccccc12)C(=O)O", "T/C": "96 % of control"}
{"molecule": "C#CCN(C)Cc1ccccc1", "T/C": "109 % of control"}

* * *

Reported T/C values for the following compounds.
tested on: BDF1 mice, P388 leukemia ip, median survival T/C; experiment: NCI In Vivo Anticancer Drug Screen. Data for tumor model P388 Leukemia (intraperitoneal) in B6D2F1 (BDF1) mice; conditions: endpoint: median survival time; dose: 25.0 mg/kg/injection; schedule: Q04DX003 (ip); vehicle: saline with Tween-80; higher = longer survival
Toxic doses and inconclusive results are not listed.
property.name: T/C

{"compound": "N#Cc1ccccc1NN=Nc1ccccc1-c1nc(N)nc(N)n1", "observed.value": "105 % of control"}
{"compound": "CCCSCCSCCC", "observed.value": "100 % of control"}
{"compound": "CCCCN(CCCC)CC(C)O (configuration not stated)", "observed.value": "100 % of control"}
{"compound": "COC(=O)C(CSCc1ccccc1)NC(=O)CCNC(=O)OCc1ccccc1 (configuration not stated)", "observed.value": "102 % of control"}
{"compound": "Cc1nc(N)c(N)nc1C", "observed.value": "102 % of control"}
{"compound": "O=C(Nc1ccccc1)C1=C(Nc2ccccc2)CSC1", "observed.value": "99 % of control"}
{"compound": "O=[N+]([O-])c1cccc(N2CN(c3ccccc3)NC(c3ccccc3)=N2)c1", "observed.value": "96 % of control"}
{"compound": "CC1COC(Nc2cccc3c2CCCC3)=N1 (configuration not stated)", "observed.value": "109 % of control"}
{"compound": "CCCCN(CCC#N)CCCC", "observed.value": "100 % of control"}
{"compound": "Nc1nc(C=O)c(Cc2ccc(Br)cc2)c(=O)[nH]1", "observed.value": "104 % of control"}
{"compound": "CC1CCCC(CN=Cc2cc([N+](=O)[O-])ccc2O)[N-]1.CC1CCCC(CN=Cc2cc([N+](=O)[O-])ccc2O)[N-]1.[Ni+2] (configuration not stated)", "observed.value": "100 % of control"}
{"compound": "CC1(C)CC(=O)C(C)(C)C(=O)C1", "observed.value": "95 % of control"}

* * *

system: BDF1 mice, P388 leukemia ip, median survival T/C; assay: NCI In Vivo Anticancer Drug Screen. Data for tumor model P388 Leukemia (intraperitoneal) in B6D2F1 (BDF1) mice; conditions: endpoint: median survival time; dose: 200.0 mg/kg/injection; schedule: Q04DX003 (ip); vehicle: saline with Tween-80; higher = longer survival
Toxic doses and inconclusive results are not listed. Non-standard residues stand in square brackets, D forms with d. Residues, ends and D or L forms follow the SMILES beside them. ξ: configuration not given here. *: point of attachment. ξF = NC(Cc1ccccc1)C(=O)O; ClAc = O=C(CCl)*; For = O=C*
Reported T/C values follow for various compounds

{"compound": "CCOC(=O)c1c(OCCCc2ccc(F)cc2)cc2ccc3ccccc3c2c1OCCCc1ccc(F)cc1", "T/C": "87 % of control"}
{"compound": "CCCCCCCCCCCCCC(=O)CC", "T/C": "87 % of control"}
{"compound": "COC1CC(OS(=O)(=O)c2ccc(C)cc2)C(O)C(C)O1 (stereo unspecified)", "T/C": "97 % of control"}
{"compound": "C=CC(=O)NC12CC3CC(CC(C3)C1)C2", "T/C": "95 % of control"}
{"compound": "O=C(NCCCCOc1ccc([N+](=O)[O-])cc1Cl)c1ccc(S(=O)(=O)F)cc1", "T/C": "106 % of control"}
{"compound": "c1ccc(C(=NCCN=C(c2ccccc2)c2ccccc2)c2ccccc2)cc1", "T/C": "91 % of control"}
{"compound": "CS(=O)(=O)OCCn1c(=O)n(CCOS(C)(=O)=O)c(=O)n(CCOS(C)(=O)=O)c1=O", "T/C": "100 % of control"}
{"compound": "CC(=O)CC(=O)Nc1ccc([N+](=O)[O-])cc1", "T/C": "95 % of control"}
{"compound": "C1=CCONC1", "T/C": "100 % of control"}
{"compound": "S=C(/N=C1\\CCC\\C1=C/c1ccccc1)/N=C1\\CCC\\C1=C/c1ccccc1", "T/C": "109 % of control"}
{"compound": "CC1(C)CC(=O)NN1C(=O)c1ccccc1", "T/C": "105 % of control"}
{"compound": "CCOC(=O)C1c2cccc(O)c2C=CN1C(C)=O (stereo unspecified)", "T/C": "91 % of control"}
{"compound": "O=c1[nH]cnc2c1nc1n2CCC1", "T/C": "113 % of control"}
{"compound": "NC(Cc1ccccc1)C(=O)NCC(=O)NCC(=O)O (stereo not drawn) (H-[ξF]-Gly-Gly-OH)", "T/C": "104 % of control"}
{"compound": "Cc1nc([N+](=O)[O-])cn1CC/C(N)=N/O", "T/C": "105 % of control"}
{"compound": "CCOC(=O)/C(C#N)=C/N=c1ncccn1C", "T/C": "93 % of control"}
{"compound": "CN1COC(OC2CSC2)C(C)(C)C1 (stereo unspecified)", "T/C": "114 % of control"}
{"compound": "Cc1c(Cl)c(Cl)c(Cl)c(Cl)c1Cl", "T/C": "104 % of control"}
{"compound": "Cc1ccccc1NC(=O)C1CCC(C)(C(=O)O)C1(C)C (stereo unspecified)", "T/C": "100 % of control"}
{"compound": "Cc1ccc(NS(=O)(=O)c2ccccc2)cc1", "T/C": "100 % of control"}
{"compound": "COc1ccc(C(C#N)Nc2ccccc2)cc1 (stereo unspecified)", "T/C": "100 % of control"}
{"compound": "CCO/C=C(\\C#N)C(=O)O", "T/C": "88 % of control"}
{"compound": "CCOC(=O)/C(Cc1cnc2ccccc2n1)=N\\O", "T/C": "100 % of control"}
{"compound": "CCOC(=O)CCCc1ccccc1", "T/C": "100 % of control"}
{"compound": "NC(=O)c1ccc(C(N)=O)cc1", "T/C": "104 % of control"}
{"compound": "CC(Cc1ccccc1)C(N)=O (stereo unspecified)", "T/C": "113 % of control"}
{"compound": "S=c1c2[nH]cnc2ncn1CCSC1=NC=NC2=NC=NC21 (stereo unspecified)", "T/C": "95 % of control"}
{"compound": "COn1nnc2c(Cl)c(Cl)ccc21", "T/C": "92 % of control"}
{"compound": "O=C(NC(C(=O)O)c1ccccc1)OCc1ccccc1 (stereo unspecified)", "T/C": "109 % of control"}
{"compound": "O=C(CCl)NCC(=O)NC(Cc1ccccc1)C(=O)O (stereo unspecified) (ClAc-Gly-[ξF]-OH)", "T/C": "90 % of control"}
{"compound": "COc1ccc(C2=NNc3n[nH]c(=S)n3N2)cc1OC", "T/C": "100 % of control"}
{"compound": "CCC(=O)Oc1ccc2c(c1)CC[C@@H]1[C@@H]2CC[C@]2(C)C[C@H](OC(=O)CC)C[C@@H]12", "T/C": "100 % of control"}
{"compound": "O=[N+]([O-])c1ccc(Sc2ccc([N+](=O)[O-])cc2)cc1", "T/C": "100 % of control"}
{"compound": "OC(O)C(F)(F)F", "T/C": "113 % of control"}
{"compound": "Cc1cc2nc3c(nc2cc1C)-c1ccccc1C3=O", "T/C": "100 % of control"}
{"compound": "CCOC(=O)C(=O)C1CCCC1=O (stereo unspecified)", "T/C": "109 % of control"}
{"compound": "CCOC(=O)CCc1nc(C(=O)OCC)c(C)c(=O)[nH]1", "T/C": "103 % of control"}
{"compound": "O=c1[nH]c2ccc(I)cc2c(=O)o1", "T/C": "104 % of control"}
{"compound": "O=C(O)CCC(=O)/C=C1/Nc2ccccc2C1=O", "T/C": "120 % of control"}
{"compound": "CCOC(=O)CCC[P+](c1ccccc1)(c1ccccc1)c1ccccc1", "T/C": "115 % of control"}
{"compound": "CC12CCC3C(CCC4CC5(CCC43C)CO5)C1CCC2=O (stereo unspecified)", "T/C": "103 % of control"}
{"compound": "COC(=O)C(CC(C)C)NC(=O)C(Cc1ccc(O)cc1)NC=O (stereo not drawn) (For-Tyr-Leu-OMe; configuration not given here)", "T/C": "110 % of control"}
{"compound": "C#CC(O)C(CC)CCCC (stereo unspecified)", "T/C": "100 % of control"}
{"compound": "CC(C)COC(=O)c1cc(O)c(O)c(O)c1", "T/C": "115 % of control"}
{"compound": "O=C(/C=N/O)Nc1cc(Cl)c(Cl)cc1Cl", "T/C": "122 % of control"}
{"compound": "Cc1cc2c(cc1C)C(O)C(N1CCN(C)CC1)CCC2 (stereo unspecified)", "T/C": "100 % of control"}
{"compound": "CC(=O)Oc1cc([N+](=O)[O-])ccc1C(=O)O", "T/C": "108 % of control"}
{"compound": "Cc1ccc(C(=O)CCCCl)c(C)c1", "T/C": "109 % of control"}
{"compound": "C(=C\\c1ccc2ccc(/C=C/c3ccccc3)cc2c1)/c1ccccc1", "T/C": "90 % of control"}
{"compound": "Nc1n[nH]c(N)n1.[Ni]", "T/C": "87 % of control"}
{"compound": "COc1cc(/C=N/NC(=O)c2ccccc2)cc(OC)c1OC", "T/C": "104 % of control"}
